Tested on: Fibroblast
assay.name: Multiplex assay against human fibroblast
Format: toxicity, cell-based
assay.context: 24 h, 10 µM, compound concentration 10 uM, replicate 2
quantity.kind: Population Normal (%)
Give bare numbers, in %.

Please review the entries below; each comes with its answer.
| molecule | tgt | Population Normal (%) |
| --- | --- | --- |
| CC(C)NCC(O)COc1ccc(CCOCC2CC2)cc1.Cl (configuration not stated) [BETAXOLOL HYDROCHLORIDE] | Fibroblast | 94 |
| CN1CCC[C@@H]1CCO[C@](C)(c1ccccc1)c1ccc(Cl)cc1.O=C(O)/C=C/C(=O)O [CLEMASTINE FUMARATE] | Fibroblast | 87 |
| Cn1cc(-c2[nH]c3cc(NC(=O)[C@H](N)C4CCCCC4)cc4c3c2C=NNC4=O)cn1 | Fibroblast | 83 |
| CN(C)C(=O)/C(C#N)=C/c1ccc(-c2nc3cnc4[nH]ccc4c3n2C2CCCCC2)o1 | Fibroblast | 45 |
| CN1CCN(c2ccc(OC(F)(F)F)c(Nc3ncc4c(n3)-c3c(c(C(N)=O)nn3CCO)CC4)c2)CC1 [ONVANSERTIB] | Fibroblast | 83 |
| O=C1NCN(c2ccccc2)C12CCN(CCCOc1ccc(F)cc1)CC2 [SPIRAMIDE] | Fibroblast | 93 |

# per-item lookup of Population Normal (%); items listed below
1. CN(C)C(=O)N[C@H]1CC[C@H](CCN2CCN(c3cccc(Cl)c3Cl)CC2)CC1.Cl [CARIPRAZINE HYDROCHLORIDE]
2. CN1CCN(CCOc2cc(OC3CCOCC3)c3c(Nc4c(Cl)ccc5c4OCO5)ncnc3c2)CC1 [SARACATINIB]
3. CN(C)CC#Cc1ccc(OCCCc2sc(N3CCc4cccc(C(=O)Nc5nc6ccccc6s5)c4C3)nc2C(=O)O)c(F)c1 [A-1155463]
4. Cc1nc(Nc2n[nH]c3c2CN(C(=O)N[C@H](CN(C)C)c2ccccc2)C3(C)C)c2sccc2n1 [PF-03758309]

Reply:
1: 96; 2: 91; 3: 89; 4: 65

###

Test system: U2OS
assay.name: Multiplex assay against U2OS
Type: toxicity, cell-based
assay.context: human, 24 h, 10 µM, compound concentration 10 uM, replicate 1
quantity.kind: Population Fragmented Nuclei (%)
Answers are plain numbers, in %.

| compound | Population Fragmented Nuclei (%) |
| --- | --- |
| Cc1[nH]c(/C=C2\C(=O)Nc3ccc(S(=O)(=O)N(C)c4cccc(Cl)c4)cc32)c(C)c1C(=O)N1CCN(C)CC1 | 13 |
| Cc1nc(-c2ccc(-c3ccc(C(=O)N4CCc5cc6c(cc54)C4(CCN(C)CC4)CO6)cc3)c(C)c2)no1 [SB-224289] | 24 |
| C=CC(=O)Nc1cccc(C(=O)Nc2ccc(Nc3cc(-c4[nH]c(SC)nc4C)ccn3)cc2)c1 | 7 |

Attention now shifts to the item below.
Task item: Which Population Fragmented Nuclei (%) is listed for CN1CCCC(n2nc(Cc3ccc(Cl)cc3)c3ccccc3c2=O)CC1.Cl (centres undefined) [AZELASTINE HYDROCHLORIDE] ?
Reply: 29

###

Tested on: U2OS
assay.name: Multiplex assay against U2OS
Format: toxicity, cell-based
assay.context: human, 12 h, 10 µM, compound concentration 10 uM, replicate 2
API: label(entry) gives YES if the entry's Population Mitotic Cells (%) is strictly smaller than 30%; on equality or larger values it gives NO.

| compound | group.label |
| --- | --- |
| COc1cc2nccc(Oc3ccc(NC(=O)Nc4cc(C)on4)c(Cl)c3)c2cc1OC.O | YES |
| COc1cc(-n2cnc3cc(-c4ccc(Cl)cc4)sc3c2=O)ccc1OCCN1CCCC1 | NO |
| Cc1csc2c(N[C@@H](C)CN3CCN(S(=O)(=O)c4ccc(Cl)c(Cl)c4)CC3)ncnc12 | YES |
| CN1CCCC(n2nc(Cc3ccc(Cl)cc3)c3ccccc3c2=O)CC1.Cl (stereo not drawn) [AZELASTINE HYDROCHLORIDE] | NO |

Task item: Answer whether the compound Cc1[nH]c(/C=C2\C(=O)Nc3ccc(S(=O)(=O)N(C)c4cccc(Cl)c4)cc32)c(C)c1C(=O)N1CCN(C)CC1 has Population Mitotic Cells (%) strictly less than 30%
Reply: NO

Task item: Answer whether the compound Cc1nc(Nc2n[nH]c3c2CN(C(=O)N[C@H](CN(C)C)c2ccccc2)C3(C)C)c2sccc2n1 [PF-03758309] has Population Mitotic Cells (%) strictly less than 30%
Reply: YES

Task item: Answer whether the compound CCN(CC)CCCCNc1ncc2cc(-c3cc(OC)cc(OC)c3)c(NC(=O)NC(C)(C)C)nc2n1 [PD-173074] has Population Mitotic Cells (%) strictly less than 30%
Reply: NO

Task item: Answer whether the compound c1cn2cc(-c3ccc4cn[nH]c4c3)nc(Nc3ccc(N4CCOCC4)cc3)c2n1 [ENTOSPLETINIB] has Population Mitotic Cells (%) strictly less than 30%
Reply: YES

###

Provide the reported Population Healthy Nuclei (%) of each item.
System: Fibroblast
assay.name: Multiplex assay against human fibroblast
Type: toxicity, cell-based
assay.context: 48 h, 10 µM, compound concentration 10 uM, replicate 1
Give the number first and the unit second.

# per-item lookup of Population Healthy Nuclei (%); items listed below
1. CN(C)C(=O)/C(C#N)=C/c1ccc(-c2nc3cnc4[nH]ccc4c3n2C2CCCCC2)o1
2. Cc1cc(C)cc(-c2cnc3cc(Cl)c(-c4cccc(O)c4)cc3c2OCCCN)c1

Reply:
1: 28%; 2: 28%

# per-item lookup of Population Healthy Nuclei (%); items listed below
1. Cn1cc(-c2[nH]c3cc(NC(=O)[C@H](N)C4CCCCC4)cc4c3c2C=NNC4=O)cn1
2. COc1ncc(-c2ccc3nccc(-c4ccnnc4)c3c2)cc1NS(=O)(=O)c1ccc(F)cc1F
3. COc1cccc([C@@H](C)NCCCc2ccccc2Cl)c1.Cl [TECALCET HYDROCHLORIDE]

Reply:
41%
50%
45%

# per-item lookup of Population Healthy Nuclei (%); items listed below
1. CC(C)NCC(O)COc1ccc(CCOCC2CC2)cc1.Cl (stereo not drawn) [BETAXOLOL HYDROCHLORIDE]
2. CNCc1ccccc1-c1csc([C@H](C)Nc2nc(C)nc3cc(OC)c(OC)cc23)c1
3. COc1cc2nccc(Oc3ccc(NC(=O)Nc4cc(C)on4)c(Cl)c3)c2cc1OC.O
4. CC(C)(O)CNc1ncc(-c2ccnc(Nc3ccnc(Cl)c3)n2)c(CC2CC2)n1

Reply:
["50%", "44%", "47%", "29%"]

# per-item lookup of Population Healthy Nuclei (%); items listed below
1. CN1CCCC(n2nc(Cc3ccc(Cl)cc3)c3ccccc3c2=O)CC1.Cl (stereo not drawn) [AZELASTINE HYDROCHLORIDE]
2. CC[C@H](C)C(=O)O[C@H]1C[C@@H](C)C=C2C=C[C@H](C)[C@H](CC[C@@H]3C[C@@H](O)CC(=O)O3)[C@H]21
3. Cc1[nH]c(/C=C2\C(=O)Nc3ccc(S(=O)(=O)N(C)c4cccc(Cl)c4)cc32)c(C)c1C(=O)N1CCN(C)CC1
4. CN1CCN(c2ccc(OC(F)(F)F)c(Nc3ncc4c(n3)-c3c(c(C(N)=O)nn3CCO)CC4)c2)CC1
5. Cc1nc(-c2ccc(-c3ccc(C(=O)N4CCc5cc6c(cc54)C4(CCN(C)CC4)CO6)cc3)c(C)c2)no1
6. COc1cc(-n2cnc3cc(-c4ccc(Cl)cc4)sc3c2=O)ccc1OCCN1CCCC1
7. NC(=O)Nc1cc(-c2cccc(F)c2)sc1C(=O)N[C@H]1CCCNC1
8. CN1CCN(CCOc2cc(OC3CCOCC3)c3c(Nc4c(Cl)ccc5c4OCO5)ncnc3c2)CC1

Reply:
["52%", "33%", "37%", "40%", "21%", "26%", "36%", "62%"]

# per-item lookup of Population Healthy Nuclei (%); items listed below
1. CNc1nc(NCc2ccc(NS(C)(=O)=O)cc2Cl)cc(-c2ccccn2)n1
2. OC1(c2ccc(Cl)cc2)CCN(Cc2c[nH]c3ccccc23)CC1
3. C=CC(=O)Nc1ccc2ncnc(Nc3ccc(OCc4cccc(F)c4)c(Cl)c3)c2c1.Cc1ccc(S(=O)(=O)O)cc1
4. CN1CCC[C@@H]1CCO[C@](C)(c1ccccc1)c1ccc(Cl)cc1.O=C(O)/C=C/C(=O)O [CLEMASTINE FUMARATE]
5. CN(C)C(=O)N[C@H]1CC[C@H](CCN2CCN(c3cccc(Cl)c3Cl)CC2)CC1.Cl [CARIPRAZINE HYDROCHLORIDE]
6. CCn1c(=O)c(-c2ccc(Cl)cc2Cl)cc2cnc(Nc3ccc(N4CCNCC4)c(F)c3)nc21
7. C[C@@]1(C(=O)Nc2ccc(F)nc2)CCCN1c1nc(Nc2cc(C3CC3)n[nH]2)c2cccn2n1

Reply:
1: 61%; 2: 26%; 3: 50%; 4: 45%; 5: 53%; 6: 46%; 7: 39%

# per-item lookup of Population Healthy Nuclei (%); items listed below
1. C[C@@H](NCCCc1cccc(C(F)(F)F)c1)c1cccc2ccccc12.Cl [CINACALCET HYDROCHLORIDE]
2. CN(C)CC#Cc1ccc(OCCCc2sc(N3CCc4cccc(C(=O)Nc5nc6ccccc6s5)c4C3)nc2C(=O)O)c(F)c1
3. O=C1NCN(c2ccccc2)C12CCN(CCCOc1ccc(F)cc1)CC2 [SPIRAMIDE]
4. Cc1c(-c2ccc(O)cc2)n(Cc2ccc(OCCN3CCCCCC3)cc2)c2ccc(O)cc12
5. Cl.N#Cc1ccc2[nH]cc(CCCCN3CCN(c4ccc5oc(C(N)=O)cc5c4)CC3)c2c1 [VILAZODONE HYDROCHLORIDE]
6. c1cn2cc(-c3ccc4cn[nH]c4c3)nc(Nc3ccc(N4CCOCC4)cc3)c2n1
7. C=CC(=O)Nc1cccc(C(=O)Nc2ccc(Nc3cc(-c4[nH]c(SC)nc4C)ccn3)cc2)c1

Reply:
36%
39%
59%
29%
23%
4%
47%

# per-item lookup of Population Healthy Nuclei (%); items listed below
1. CCOCCn1cc(C(=O)Nc2ccc(-n3nc(-c4cccnc4)cc3C(F)(F)F)cn2)ccc1=O
2. Cc1csc2c(N[C@@H](C)CN3CCN(S(=O)(=O)c4ccc(Cl)c(Cl)c4)CC3)ncnc12

Reply:
["42%", "37%"]
